All figures here come from patent US12018041B2.

So I've got a bunch of compounds here, and I need their Triplet decay time values.
experimentSummary: Transient absorption spectrum and triplet decay
Type: physicochemical
experimentalContext: dynamic absorption fitting at 485 nm in the transient absorption spectrum
Give bare numbers, in μs.

- compound: "CCC[CH2][Sn]1([CH2]CCC)[c]2cc3c4c(ccc5c6ccc7c8c(c[c]1c(c2c45)c86)C(=O)N(CCCC(C)C)C7=O)C(=O)N(CCCCC(CC)CCC)C3=O (stereo not shown)"
  Triplet decay time [μs]: 12
- compound: "CCCCCC(CC(C)CCC)N1C(=O)c2ccc3c4ccc5c6c(c[c]7c(c8[c](cc(c2c38)C1=O)[Sn]7([CH2]CCC)[CH2]CCC)c64)C(=O)N(C(CCCCC)CC(C)CCC)C5=O (stereo not shown)"
  Triplet decay time [μs]: 17
- compound: "CCC[CH2][Sn]1([CH2]CCC)[c]2cc3c4c(ccc5c6ccc7c8c(c[c]1c(c2c45)c86)C(=O)N(c1cccc2[nH]ncc12)C7=O)C(=O)N(c1cccc2[nH]ncc12)C3=O"
  Triplet decay time [μs]: 19

We next turn to a different compound, shown below.
# query: Triplet decay time of entry `CCC[CH2][Sn]1([CH2]CCC)[c]2cc3c4c(ccc5c6ccc7c8c(c[c]1c(c2c45)c86)C(=O)N(c1ccc(C(C)(C)C)cc1)C7=O)C(=O)N(c1ccc(C(C)(C)C)cc1)C3=O`
14

---

experimentSummary: Singlet oxygen quantum yield by DPBF capture in DCM
Format: physicochemical
experimentalContext: absorbance change at 414 nm
Classify: Met when Singlet oxygen quantum yield is strictly less than 40%; Not met when Singlet oxygen quantum yield is not.

Please review the entries below; each comes with its answer.
- compound: "CCC[CH2][Sn]1([CH2]CCC)[c]2cc3c4c(ccc5c6ccc7c8c(c[c]1c(c2c45)c86)C(=O)N(CC(C)C)C7=O)C(=O)N(CC(C)C)C3=O"
  className: "Met"
- compound: "CCCCCC(CC(C)CCC)N1C(=O)c2ccc3c4ccc5c6c(c[c]7c(c8[c](cc(c2c38)C1=O)[Sn]7([CH2]CCC)[CH2]CCC)c64)C(=O)N(C(CCCCC)CC(C)CCC)C5=O (stereo not drawn)"
  className: "Not met"
- compound: "CCC[CH2][Sn]1([CH2]CCC)[c]2cc3c4c(ccc5c6ccc7c8c(c[c]1c(c2c45)c86)C(=O)N(CCCC(C)C)C7=O)C(=O)N(CCCCC(CC)CCC)C3=O (stereo not drawn)"
  className: "Met"
- compound: "CCC[CH2][Sn]1([CH2]CCC)[c]2cc3c4c(ccc5c6ccc7c8c(c[c]1c(c2c45)c86)C(=O)N(c1cccc2[nH]ncc12)C7=O)C(=O)N(c1cccc2[nH]ncc12)C3=O"
  className: "Not met"

Dear colleague, could you confirm whether Singlet oxygen quantum yield of `CCC[CH2][Sn]1([CH2]CCC)[c]2cc3c4c(ccc5c6ccc7c8c(c[c]1c(c2c45)c86)C(=O)N(c1ccncc1)C7=O)C(=O)N(c1ccncc1)C3=O` falls below 40%? Thanks.
Not met

Same thing, different compound: `CCC[CH2][Sn]1([CH2]CCC)[c]2cc3c4c(ccc5c6ccc7c8c(c[c]1c(c2c45)c86)C(=O)N(C1CCNCC1)C7=O)C(=O)N(C1CCNCC1)C3=O`
Not met

Let us now turn to `CCC[CH2][Sn]1([CH2]CCC)[c]2cc3c4c(ccc5c6ccc7c8c(c[c]1c(c2c45)c86)C(=O)N(c1ccc(C(C)(C)C)cc1)C7=O)C(=O)N(c1ccc(C(C)(C)C)cc1)C3=O`
Met

Next compound: `CCC[CH2][Sn]1([CH2]CCC)[c]2cc3c4c(ccc5c6ccc7c8c(c[c]1c(c2c45)c86)C(=O)N(c1cccc2ccccc12)C7=O)C(=O)N(c1cccc2ccccc12)C3=O`
Met

---

experimentSummary: Transient absorption spectrum and triplet decay
Assay type: physicochemical
experimentalContext: dynamic absorption fitting at 485 nm in the transient absorption spectrum
Field: Triplet decay time. Provide a value for each of the compounds that follow.
Numbers only, in μs.

Record excerpt, results attached:
- structureSmiles: "CCC[CH2][Sn]1([CH2]CCC)[c]2cc3c4c(ccc5c6ccc7c8c(c[c]1c(c2c45)c86)C(=O)N(CC(C)C)C7=O)C(=O)N(CC(C)C)C3=O"
  unitText: "μs"
  Triplet decay time: 18
- structureSmiles: "CCC[CH2][Sn]1([CH2]CCC)[c]2cc3c4c(ccc5c6ccc7c8c(c[c]1c(c2c45)c86)C(=O)N(c1cccc2ccccc12)C7=O)C(=O)N(c1cccc2ccccc12)C3=O"
  unitText: "μs"
  Triplet decay time: 11
- structureSmiles: "CCC[CH2][Sn]1([CH2]CCC)[c]2cc3c4c(ccc5c6ccc7c8c(c[c]1c(c2c45)c86)C(=O)N(c1ccncc1)C7=O)C(=O)N(c1ccncc1)C3=O"
  unitText: "μs"
  Triplet decay time: 25
- structureSmiles: "CCCCCC(CCCCC)N1C(=O)c2ccc3c4ccc5c6c(c[c]7c(c8[c](cc(c2c38)C1=O)[Sn]7([CH2]CCC)[CH2]CCC)c64)C(=O)N(C(CCCCC)CCCCC)C5=O"
  unitText: "μs"
  Triplet decay time: 17

// Triplet decay time lookup, key: `CCC[CH2][Sn]1([CH2]CCC)[c]2cc3c4c(ccc5c6ccc7c8c(c[c]1c(c2c45)c86)C(=O)N(C1CCNCC1)C7=O)C(=O)N(C1CCNCC1)C3=O`
21

---

experimentSummary: UV-Vis absorption spectrum in a solution state
Type: physicochemical
experimentalContext: compared with the corresponding perylene diimide without tin ring
experimentalEndpoint: Absorption spectrum

- compound: "CCC[CH2][Sn]1([CH2]CCC)[c]2cc3c4c(ccc5c6ccc7c8c(c[c]1c(c2c45)c86)C(=O)N(c1ccncc1)C7=O)C(=O)N(c1ccncc1)C3=O [Example B20]"
  reportedValue: "red shift"
- compound: "CCC[CH2][Sn]1([CH2]CCC)[c]2cc3c4c(ccc5c6ccc7c8c(c[c]1c(c2c45)c86)C(=O)N(c1cccc2ccccc12)C7=O)C(=O)N(c1cccc2ccccc12)C3=O [Example B17]"
  reportedValue: "red shift"
- compound: "CCCCCC(CC(C)CCC)N1C(=O)c2ccc3c4ccc5c6c(c[c]7c(c8[c](cc(c2c38)C1=O)[Sn]7([CH2]CCC)[CH2]CCC)c64)C(=O)N(C(CCCCC)CC(C)CCC)C5=O (stereo not drawn) [Example B4]"
  reportedValue: "red shift"
